testTarget: Ubiquitin carboxyl-terminal hydrolase 7 (Homo sapiens) (UniProt Q93009)
Sequence (Q93009 whole entry, looked up): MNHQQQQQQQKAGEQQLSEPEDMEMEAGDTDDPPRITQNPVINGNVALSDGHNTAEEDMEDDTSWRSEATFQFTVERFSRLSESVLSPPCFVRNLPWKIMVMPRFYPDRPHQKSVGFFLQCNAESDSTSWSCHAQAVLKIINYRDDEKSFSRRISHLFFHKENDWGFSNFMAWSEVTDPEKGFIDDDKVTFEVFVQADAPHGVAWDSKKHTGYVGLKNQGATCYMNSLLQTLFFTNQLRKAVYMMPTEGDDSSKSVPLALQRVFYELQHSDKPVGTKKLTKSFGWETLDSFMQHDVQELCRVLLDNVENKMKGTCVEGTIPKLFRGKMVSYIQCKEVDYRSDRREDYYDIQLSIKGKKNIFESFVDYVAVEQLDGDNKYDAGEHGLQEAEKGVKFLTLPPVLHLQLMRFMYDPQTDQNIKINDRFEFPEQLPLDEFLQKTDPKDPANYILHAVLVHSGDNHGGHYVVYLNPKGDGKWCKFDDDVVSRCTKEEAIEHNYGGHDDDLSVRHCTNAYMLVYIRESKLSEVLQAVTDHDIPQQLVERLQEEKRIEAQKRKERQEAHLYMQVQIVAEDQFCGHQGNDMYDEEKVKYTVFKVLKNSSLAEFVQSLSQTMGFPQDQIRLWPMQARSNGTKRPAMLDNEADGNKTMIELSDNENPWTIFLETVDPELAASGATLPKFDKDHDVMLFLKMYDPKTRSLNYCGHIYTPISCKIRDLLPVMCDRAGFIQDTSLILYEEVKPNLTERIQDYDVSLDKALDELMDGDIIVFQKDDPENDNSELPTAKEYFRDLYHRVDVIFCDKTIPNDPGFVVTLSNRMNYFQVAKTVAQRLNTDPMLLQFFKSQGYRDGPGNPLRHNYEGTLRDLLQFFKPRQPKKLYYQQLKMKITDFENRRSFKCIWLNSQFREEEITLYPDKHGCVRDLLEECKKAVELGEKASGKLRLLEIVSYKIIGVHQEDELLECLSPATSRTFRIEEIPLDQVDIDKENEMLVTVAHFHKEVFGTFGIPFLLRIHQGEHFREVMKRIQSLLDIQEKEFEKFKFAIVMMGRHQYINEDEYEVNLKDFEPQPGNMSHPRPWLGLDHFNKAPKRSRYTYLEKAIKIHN
measurementNotes: blocks human USP7 ubiquitin-rhodamine cleavage (AID 1645854)
statedConditions: purified USP7, Ub-rhodamine cleavage fluorescence; at 20 µM; stronger effect = higher value
Hit rate of the full screen: of about 47,000 compounds, about 140 (0.3%) were called active. The sample holds actives, similar compounds and a random draw of the others, so the mix is not that of the screen.
propertyName: inhibition (%)
The figure you give is taken to be in %; do not add the unit.

{"columns": ["compound", "inhibition / %"],
 "data": [
  ["CC(C)[C@H](Cn1nnc2ccccc21)NC(=O)c1ccc2c(c1)CCN2S(C)(=O)=O", -1.02],
  ["CCCc1cc(=O)oc2cc(OCC(=O)NCc3ccc(OC)cc3)ccc12", 1.51],
  ["CSc1ncnc2c1sc1nc(-c3ccccc3)c3c(c12)CC(C)(C)OC3", 4.67],
  ["CNc1nc(C2CCN(C(=O)c3ccc4c(c3)OCCO4)C2)nc2c1CN(C)CC2 (stereo not given)", -10.6],
  ["CN(C(=O)Cn1c(=O)n(CCCC(=O)N2CCc3ccccc3C2)c(=O)c2ccccc21)C1CCCCC1", -62.2],
  ["CN1CCN(c2ccc(CNS(=O)(=O)c3cccc(F)c3)cc2)CC1", 3.64],
  ["CC1(C)C(=O)Nc2ccc(S(=O)(=O)NCc3ccc(F)cc3)cc21", 1.68],
  ["Cn1nc(C(=O)N2CCOCC2)c2c1CN(Cc1cccnc1)CC2", -1.02]
]}

Exercise: State its inhibition for this compound: Cc1nn(C)c(Cl)c1C1CCCN1C(=O)c1ccc(C)n(C)c1=O (stereo not given)
Solution: 2.77

Exercise: State its inhibition for this compound: Cc1nc(Nc2ccccn2)cc(C2CCCN2C(=O)c2cccnc2)n1 (stereo not given)
Solution: -7.09

###

Listed below: inhibition values for each entry.
testTarget: Ubiquitin carboxyl-terminal hydrolase 7 (Homo sapiens) (UniProt Q93009)
measurementNotes: blocks human USP7 ubiquitin-rhodamine cleavage (AID 1645854)
statedConditions: purified USP7, Ub-rhodamine cleavage fluorescence; at 20 µM; stronger effect = higher value
In all, about 47,000 compounds went through this assay and about 140 (0.3%) were called active. Only a selection was taken, and actives are over-represented in it overall.
The figure you give is taken to be in %; do not add the unit.

{"columns": ["molecule", "inhibition [%]"],
 "data": [
  ["CCc1ccccc1NC(=O)COc1nsnc1N1CCOCC1", -0.647],
  ["O=C(Nc1ccc2c(c1)CCC2)N1CC2CN(S(=O)(=O)c3ccccc3)CC(C1)O2", -2.8],
  ["Cc1cc(C)nc(SCc2nnc(Nc3ccccc3)s2)n1", 0.95],
  ["O=C(NCc1ccc2c(c1)OCO2)C1(c2ccc(Cl)cc2)CCCC1", -12.3],
  ["COc1cccc(CN2CCCC2c2noc(C3CC3)n2)c1 (stereo unspecified)", 0.378]
]}

Exercise: State its inhibition for this molecule: C/C=C(\C)C(=O)C(C)C1=CC(=O)C2=C(O[C@]3(C)CC[C@@H]4O[C@H](C(C)(C)O)CC[C@@]4(C)[C@@H]3C2)C1=O (stereo partly specified)
Solution: -44.6

Exercise: State its inhibition for this molecule: "Cc1nc2ccccc2c(=O)n1-c1ccc(F)c(NC(=O)c2ccccc2[N+](=O)[O-])c1"
Solution: 3.02

Exercise: State its inhibition for this molecule: "CC(C)Cc1nnc(NC(=O)c2cc(=O)[nH]c3ccccc23)s1"
Solution: -0.0201

Exercise: State its inhibition for this molecule: O=C1CCC2C(c3ccc4c(c3)OCO4)CC1N2Cc1ccccc1 (stereo unspecified)
Solution: -3.81

Exercise: State its inhibition for this molecule: "COc1ccccc1CNc1ccc2c(cc1=O)[C@@H](NC(C)=O)CCc1cc(OC)c(OC)c(OC)c1-2"
Solution: -13.3

###

testTarget: Ubiquitin carboxyl-terminal hydrolase 7 (Homo sapiens) (UniProt Q93009)
measurementNotes: blocks human USP7 ubiquitin-rhodamine cleavage (AID 1645854)
statedConditions: purified USP7, Ub-rhodamine cleavage fluorescence; at 20 µM; stronger effect = higher value
About 140 (0.3%) of roughly 47,000 compounds were called active. The list comes from a sample in which actives are over-represented; it also holds close analogues and randomly drawn compounds.
propertyName: inhibition (%)
The figure you give is taken to be in %; do not add the unit.

{"columns": ["compound", "testTarget", "propertyName", "observedValue"],
 "data": [
  ["O=C(Nc1cc(C(F)(F)F)ccc1-n1cnc2ccccc21)c1ccc(S(=O)(=O)N2CCCCC2)cc1", "Ubiquitin carboxyl-terminal hydrolase 7 (Homo sapiens) (UniProt Q93009)", "inhibition", 12.8]
]}

Exercise: State its inhibition for this compound: CC1CCC(NC(=O)C2(C)Cc3ccccc3C(=O)N2Cc2ccccc2)CC1 (stereo not given)
Solution: -18.1

Exercise: State its inhibition for this compound: "Cc1ccc(C)c(N(C)C(=O)c2cccc3c2SCCC3=O)c1"
Solution: -2.51

Exercise: State its inhibition for this compound: "Cc1cc2nc(N3CCOCC3)n(CC(=O)Nc3ccccc3F)c(=O)c2n1C"
Solution: -0.476

Exercise: State its inhibition for this compound: Cc1nc(C2CCCN2C(=O)c2cccc3ncccc23)ncc1C(=O)N1CCOCC1 (stereo not given)
Solution: 1.41

###

testTarget: Ubiquitin carboxyl-terminal hydrolase 7 (Homo sapiens)
measurementNotes: blocks human USP7 ubiquitin-rhodamine cleavage (AID 1645854)
statedConditions: purified USP7, Ub-rhodamine cleavage fluorescence; at 20 µM; stronger effect = higher value
In all, about 47,000 compounds went through this assay and about 140 (0.3%) were called active. The entries come from a sample that favours actives as a whole.
Listed below: inhibition values for each entry.
The figure you give is taken to be in %; do not add the unit.

Check out these entries, answers already filled in.
{"columns": ["compound", "unitTag", "inhibition"],
 "data": [
  ["COCCNc1nn2c(-c3ccc4ccccc4c3)cnc2s1", "%", 1.48],
  ["COc1ccccc1NS(=O)(=O)c1ccc2c(c1)C(=O)N(C)c1ncccc1O2", "%", 2.84],
  ["O=C(Cc1ccccc1)N1CCN(c2cc(C(F)(F)F)nc3ccccc23)CC1", "%", 6.33],
  ["O=C(NCc1ccc(Cl)cc1)C1CCN(c2nccn3nc(-c4ccccc4)cc23)CC1", "%", -35.4],
  ["O=C(O)COc1cc(O)c2c(=O)cc(-c3ccccc3)oc2c1", "%", -6.31]
]}

Exercise: State its inhibition for this compound: "COc1ccc(Cn2c(=O)[nH]c3cc(C(=O)N4CCC(C(N)=O)CC4)ccc3c2=O)cc1"
Solution: -1.91

Exercise: State its inhibition for this compound: Cc1cn(C)c(C2CCCN2C(=O)c2cc(C)nc3onc(C)c23)n1 (configuration not stated)
Solution: -2.53

Exercise: State its inhibition for this compound: "COc1ccccc1CN1C[C@@H]2C[C@@H](O)CN2C[C@@H]1Cc1ccccc1"
Solution: -13

Exercise: State its inhibition for this compound: "Cc1ccccc1CS(=O)(=O)Cc1ccc(C(=O)Nc2noc3ccccc23)o1"
Solution: 2.52

###

testTarget: Ubiquitin carboxyl-terminal hydrolase 7 (Homo sapiens)
measurementNotes: blocks human USP7 ubiquitin-rhodamine cleavage (AID 1645854)
statedConditions: purified USP7, Ub-rhodamine cleavage fluorescence; at 20 µM; stronger effect = higher value
Screen size: about 47,000 compounds; about 140 (0.3%) were called active. Only a selection was taken, and actives are over-represented in it overall.
propertyName: inhibition (%)
The figure you give is taken to be in %; do not add the unit.

{"columns": ["compound", "propertyName", "observedValue"],
 "data": [
  ["Cc1ccccc1NC(=O)N1CCC(CC(=O)N2CCCCC2)CC1", "inhibition", 5.39],
  ["O=C(c1cccc(F)c1)N1CCN(Cc2cc(=O)c3ccccc3[nH]2)CC1", "inhibition", 2.84],
  ["Cn1c(CNC(=O)c2cn3ccccc3n2)nc2ccccc21", "inhibition", -4.22],
  ["Fc1ccc(-c2nn(-c3cccc(F)c3)c3c2cnc2cc4c(cc23)OCO4)cc1", "inhibition", 8.85]
]}

Please turn your attention to the following entry.
Exercise: State its inhibition for this compound: "CCCN(C(=O)c1cccc2c1SCCC2=O)c1ccc(F)cc1"
Solution: -4.01

###

testTarget: Ubiquitin carboxyl-terminal hydrolase 7 (Homo sapiens) (UniProt Q93009)
measurementNotes: blocks human USP7 ubiquitin-rhodamine cleavage (AID 1645854)
statedConditions: purified USP7, Ub-rhodamine cleavage fluorescence; at 20 µM; stronger effect = higher value
In all, about 47,000 compounds went through this assay and about 140 (0.3%) were called active. This excerpt belongs to a sample that is enriched for actives.
propertyName: inhibition (%)
The figure you give is taken to be in %; do not add the unit.

{"columns": ["molecule", "observedValue"],
 "data": [
  ["CC(=O)N1CCCn2c(nc(CNC(=O)c3cnn(C)c3)cc2=O)C1", 6.8],
  ["CC(=O)N1CCC(NC2(Cc3cc(C(C)(C)C)on3)COC2)CC1", 0.342],
  ["Cc1ccccc1Nc1nccc(C2CCCN(C(=O)C3(c4ccccc4)CC3)C2)n1 (stereo not drawn)", -0.199],
  ["CC12CCN(CCC(F)(F)F)CCN1C(=O)N(Cc1ccccn1)C2=O (stereo not drawn)", -2.02]
]}

Exercise: State its inhibition for this molecule: COc1ccc(C(=O)NC(C(=O)OCC(=O)c2ccc(C)cc2)C(C)C)cc1OC (stereo not drawn)
Solution: 3.56

Exercise: State its inhibition for this molecule: "CC(C)CCNC(=O)C(=O)c1cn(CC(=O)N2CCCC2)c2ccccc12"
Solution: -9.94

Exercise: State its inhibition for this molecule: "Cn1ccc(-c2cc(C(=O)NCCc3ccccn3)c3ccccn23)n1"
Solution: 0.582

Exercise: State its inhibition for this molecule: COC(=O)c1c(C)[nH]c(C(=O)C(C)OC(=O)c2cccc(F)c2)c1C (stereo not drawn)
Solution: -2.46

Exercise: State its inhibition for this molecule: "CC(C)n1ncc2c(C(=O)NCc3ccccc3CN(C)C)cc(C3CC3)nc21"
Solution: -0.227

Exercise: State its inhibition for this molecule: "COc1cc(C(=O)N[C@@H]2C(=O)Nc3c(c(C)nn3C)[C@H]2c2cccc(Cl)c2)cc(OC)c1OC"
Solution: -9.37

Exercise: State its inhibition for this molecule: Cn1cncc1-c1cncc(CC2CCCN(S(C)(=O)=O)C2)n1 (stereo not drawn)
Solution: 0.0473

Exercise: State its inhibition for this molecule: COc1ccc(Cl)cc1NC(=O)C1CC(=O)NC(Nc2ccccc2)=N1 (stereo not drawn)
Solution: -1.4

Exercise: State its inhibition for this molecule: "O=C(CN1CCCCC1)N[C@@H]1C[C@H]2Oc3ccccc3N[C@H]2[C@@H]1O"
Solution: 3.93

Exercise: State its inhibition for this molecule: COc1c2c(cc3c1C(c1nnnn1-c1ccc(C)cc1C)N(C)CC3)OCO2 (stereo not drawn)
Solution: 10.7

Exercise: State its inhibition for this molecule: "Cc1ccccc1CNC(=O)CCc1nc2ccccc2c(=O)n1C"
Solution: -6.78

Exercise: State its inhibition for this molecule: "CCOC(=O)Nc1cc(C)nn1-c1ncnc2c1cnn2-c1ccc(F)cc1"
Solution: 0.0906
